Molecular target: SlGSTD1 (Spodoptera litura)
Construct: gene LOC111355915
Sequence (A0A9J7IUS4 1-221): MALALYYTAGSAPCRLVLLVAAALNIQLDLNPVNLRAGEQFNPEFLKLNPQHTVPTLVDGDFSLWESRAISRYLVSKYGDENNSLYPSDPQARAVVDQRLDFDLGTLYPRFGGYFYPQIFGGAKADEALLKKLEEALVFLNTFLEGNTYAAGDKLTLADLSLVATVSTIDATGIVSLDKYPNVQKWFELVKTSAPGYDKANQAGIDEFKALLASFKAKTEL
Assay: inhibition of GSH-CDNB conjugation, A340
Type: biochemical
Settings: read-out: IC50
Readout type: IC50 (nM)
Numbers only; they are read as nM.

Entry CCOC(=O)/C=C\C(=O)OCC [DEM, reference compound] has what IC50?
2100

====

Each entry below carries its recorded IC50.
Target: SlGSTD1 (Spodoptera litura, UniProt A0A9J7IUS4)
Construct: gene LOC111355915
Test: inhibition of GSH-CDNB conjugation, A340
Assay type: biochemical
The reply should contain only the number, in µM.

CCOP(=S)(OCC)Oc1nc(Cl)c(Cl)cc1Cl    170
CC(C)C(C(=O)OC(C#N)c1cccc(Oc2ccccc2)c1)c1ccc(Cl)cc1 (stereo not drawn) [fenvalerate]    21.6

Now consider a different molecule.
Reported IC50 for CC1(C)C(/C=C(\Cl)C(F)(F)F)C1C(=O)OC(C#N)c1cccc(Oc2ccccc2)c1 (stereo not drawn) : what is it?
124
